// provenance: patent US10167272B2

TEST_SYSTEM: human muscarinic M4 receptor (Homo sapiens)
Construct: expressed in transfected cells
Sequence (P08173 1-479): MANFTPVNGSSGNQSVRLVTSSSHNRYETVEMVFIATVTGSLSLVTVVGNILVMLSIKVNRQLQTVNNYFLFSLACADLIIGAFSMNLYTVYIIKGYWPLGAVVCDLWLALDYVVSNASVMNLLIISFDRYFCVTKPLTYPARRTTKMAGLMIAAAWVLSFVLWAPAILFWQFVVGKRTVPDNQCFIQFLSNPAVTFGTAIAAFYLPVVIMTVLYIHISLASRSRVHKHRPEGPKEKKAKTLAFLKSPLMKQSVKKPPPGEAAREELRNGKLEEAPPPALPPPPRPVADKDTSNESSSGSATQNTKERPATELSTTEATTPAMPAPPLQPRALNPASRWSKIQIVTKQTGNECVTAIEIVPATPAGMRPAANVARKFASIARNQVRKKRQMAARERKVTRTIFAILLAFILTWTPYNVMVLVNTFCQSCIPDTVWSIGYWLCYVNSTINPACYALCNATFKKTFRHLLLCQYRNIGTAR
PROTOCOL_DESCRIPTION: Alphascreen Surefire phospho-ERK1/2 functional assay, M4
Type: cell-based
CONDITION_NOTES: CHO, read-out: % Emax cf. ACh (M4), CHO cells stably expressing human M4; phospho-ERK1/2; relative to ACh
ATTRIBUTE_MEASURED: Emax (%)
One number for each entry, in %.

MOLECULE	MEASUREMENT
CCOC(=O)N1CCC2(CC(N3CCC(N(CC)OC)CC3)C2)C1 (single isomer, unassigned) [2-57 Isomer 2]	107
CCOC(=O)N1CCC2(CC(N3CCC(N(CC)C(=O)OC)CC3)C2)C1 (single isomer, unassigned) [2-39 Isomer 2]	126
CCOC(=O)N1CCC2(CC(N3CCC(N(CC(F)(F)F)C(C)=O)CC3)C2)C1 (single isomer, unassigned) [2-25 Isomer 2]	101
CCOC(=O)N1CCC2(CC(N3CCC(N(CCOC)CC(F)(F)F)CC3)C2)C1 (single isomer, unassigned) [2-52 Isomer 2]	106
CCOC(=O)N1CCC2(CC(N3CCC(N(CC)C(=O)N(C)C)CC3)C2)C1 (single isomer, unassigned) [Example 2-44 Isomer 2]	80
CCOC(=O)N1CCC2(CC(N3CCC(N(CC(F)(F)F)C(=O)OCCOC)CC3)C2)C1 (single isomer, unassigned) [2-43 Isomer 2]	91
CCOC(=O)N1CCC2(CC(N3CCC(N(CC)Cc4cnco4)CC3)C2)C1 (single isomer, unassigned) [2-60 Isomer 2]	111
CCOC(=O)N1CCC2(CC(N3CCC(N(CC(F)F)C(C)=O)CC3)C2)C1 (single isomer, unassigned) [2-24 Isomer 2]	124
CCOC(=O)N1CCC2(CC(N3CCC(N(CC(F)(F)F)C4COC4)CC3)C2)C1 (single isomer, unassigned) [2-54 Isomer 2]	98
CCOC(=O)N1CC2(CCC(N3CCC(N(CC)C(C)=O)CC3)C2)C1 (single isomer, unassigned) [3-3 Isomer 2]	93

For each of the molecules below, state Emax.
1. CCOC(=O)N1CCC2(CC(N3CCC(N(Cc4ccccc4)C(C)=O)CC3)C2)C1 (single isomer, unassigned) [2-35 Isomer 2]
2. CCOC(=O)N1CCC2(CC(N3CCC(N(C=O)CC)CC3)C2)C1 (single isomer, unassigned) [2-16 Isomer 2]
3. CCOC(=O)N1CCC2(CC(N3CCC(N(C(=O)C(F)(F)F)C4CC4)CC3)C2)C1 (single isomer, unassigned) [2-4 Isomer 2]
4. CCOC(=O)N1CCC2(CC(N3CCC(N(Cc4ccccc4)CC(F)(F)F)CC3)C2)C1 (single isomer, unassigned) [2-59 Isomer 2]
5. CCOC(=O)N1CCC2(CC(N3CCC(N(C(=O)OC)C(C)C)CC3)C2)C1 (single isomer, unassigned) [2-41 Isomer 2]
6. CCOC(=O)N1CCC2(CC(N3CCC(N(CCO)C4CCC4)CC3)C2)C1 (single isomer, unassigned) [2-50 Isomer 2]
7. CCOC(=O)N1CCC2(CC(N3CCC(N(C(=O)OC)C4COC4)CC3)C2)C1 (single isomer, unassigned) [2-47 Isomer 2]

Given back:
1: 72; 2: 91; 3: 114; 4: 52; 5: 127; 6: 70; 7: 90

For each of the items listed, what is its Emax?
1. CCOC(=O)N1CCC2(CC(N3CCC(N(CCO)C4CC4)CC3)C2)C1 (single isomer, unassigned) [2-49 Isomer 2]
2. CCOC(=O)N1CCC2(CC(N3CCC(N(CC(=O)OC)C4CC4)CC3)C2)C1 (single isomer, unassigned) [2-9 Isomer 2]
3. CCOC(=O)N1CCC2(CC(N3CCC(N(CC(F)(F)F)C(=O)OC)CC3)C2)C1 (single isomer, unassigned) [2-42 Isomer 2]
4. CCOC(=O)N1CC2(CC(N3CCC(N(C(C)=O)C4CC4)CC3)C2)C1
5. CCOC(=O)N1CCC2(CC(N3CCC(N(CC4(C)COC4)C(C)=O)CC3)C2)C1 (single isomer, unassigned) [2-23 Isomer 2]
6. CCOC(=O)N1CCC2(CC(N3CCC(N(CC)C4COC4)CC3)C2)C1 (single isomer, unassigned) [2-53 Isomer 2]
7. CCOC(=O)N1CCC2(CC(N3CCC(N(CC)CC(F)F)CC3)C2)C1 (single isomer, unassigned) [2-46 Isomer 2]
8. CCOC(=O)N1CCC2(CC(N3CCC(N(C(C)=O)C4(C)CCC4)CC3)C2)C1 (single isomer, unassigned) [2-22 Isomer 2]

Given back:
1: 78; 2: 92; 3: 112; 4: 77; 5: 65; 6: 62; 7: 98; 8: 139

Asked: Would you kindly share the measured Emax for COC(=O)N1CCC2(CC(N3CCC(N(C(C)=O)C4CCC4)CC3)C2)C1 (single isomer, unassigned) [2-15 Isomer 2] ?
Given back: 95
